MEASUREMENT PROTOCOL: Antioxidant activity against AAPH-induced hemolysis in Homo sapiens (human) RBC assessed as inhibition time at 10 uM by spectrophotometry
Type: functional, Erythrocyte
Collected Time values appear next to each entry.

COMPOUND: CCOC(=O)CNC(=O)/C=C/c1ccc(O)cc1
Time, min: 138
--
COMPOUND: CCOC(=O)CNC(=O)/C=C/c1ccc(O)c(O)c1
Time, min: 180
--
COMPOUND: CCOC(=O)CNC(=O)/C=C/c1ccc(O)c(OC)c1
Time, min: 193
--
COMPOUND: COc1cc(/C=C/C(=O)O)ccc1O [FERULATE]
Time, min: 148
--
COMPOUND: CCOC(=O)/C=C/c1ccc(O)c(OC)c1 [ETHYL FERULATE]
Time, min: 150
--
COMPOUND: CCOC(=O)[C@H](Cc1ccccc1)NC(=O)/C=C/c1ccc(O)c(OC)c1
Time, min: 198
